# assay system: Cytochrome P450 1A2 (Homo sapiens) (UniProt P05177)
# Sequence (P05177 whole entry, looked up): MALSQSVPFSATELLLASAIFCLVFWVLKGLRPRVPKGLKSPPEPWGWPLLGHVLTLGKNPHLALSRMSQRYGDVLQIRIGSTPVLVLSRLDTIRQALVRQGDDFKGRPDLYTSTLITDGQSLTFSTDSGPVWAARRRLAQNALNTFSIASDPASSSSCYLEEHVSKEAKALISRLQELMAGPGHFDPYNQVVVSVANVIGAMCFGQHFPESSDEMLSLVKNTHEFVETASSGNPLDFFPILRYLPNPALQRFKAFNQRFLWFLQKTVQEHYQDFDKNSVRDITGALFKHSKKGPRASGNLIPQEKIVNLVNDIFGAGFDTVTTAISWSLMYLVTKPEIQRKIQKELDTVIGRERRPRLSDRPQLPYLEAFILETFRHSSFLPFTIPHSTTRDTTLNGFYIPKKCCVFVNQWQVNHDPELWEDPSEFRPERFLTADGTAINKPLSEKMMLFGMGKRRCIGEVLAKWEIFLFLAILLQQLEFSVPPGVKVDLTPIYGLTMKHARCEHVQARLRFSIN
# assay method text: Cytochrome panel assay with activity outcomes
# measurement context: recombinant CYP, pro-luciferin dealkylation, luminescence, p450-cyp1a2; series mostly up to 57.1 µM
About 5,700 (36%) of roughly 16,000 compounds were called active. Not shown: some 24% with an inconclusive outcome. The call rests on the fitted dose curve; in most records, active means well fitted curve in the direction sought with a large enough effect; inconclusive means small, poorly fitted or top-dose-only effect, or effect the other way; inactive means no such curve, though single readings can be large or run the other way. The list shows a part of the results.
API: response.call in true = active, false = inactive

* Cc1ccc(N(C(=O)C(F)(F)F)C(C(=O)NC2CCCCC2)c2cccs2)cc1C (centres undefined) | false
* CC(Oc1ccc(-c2ccccc2)c(F)c1)c1ccn(S(=O)(=O)c2ccc(Cl)cc2)n1 (centres undefined) | false
* Cn1c(=O)c(-c2cccs2)nc2cncnc21 | true
* O=c1[nH]c2ccccc2c2ccccc12 | true

Now consider a different compound.
Called result for COc1cc(C2C(C#N)=C(N)N(Nc3ccccc3)C3=C2C(=O)CC(C)(C)C3)ccc1OCc1cccc(F)c1 (centres undefined)
false

====

# assay system: Cytochrome P450 1A2 (Homo sapiens)
# assay method text: Cytochrome panel assay with activity outcomes
# measurement context: recombinant CYP, pro-luciferin dealkylation, luminescence, p450-cyp1a2; series mostly up to 57.1 µM
In all, about 16,000 compounds went through this assay and about 5,700 (36%) were called active. Roughly 24% stayed inconclusive and do not appear here. Calls come from the whole dose curve; as a rule, active = well fitted curve in the direction sought with a large enough effect; inconclusive = small, poorly fitted or top-dose-only effect, or effect the other way; inactive = no such curve, though single readings can be large or run the other way. Some of the results follow.
In this exercise, the only acceptable responses are Y for active, N for inactive

Completed entries (count: 6):
- O=C(c1ccccc1)c1c[nH]c(C(=O)NCc2cccnc2)c1: Y
- COc1cccc(-c2cc(C(=O)N/N=C/c3ccc(OC)c(COC(C)=O)c3)c3ccccc3n2)c1: N
- CCOc1cc2[nH]c(=O)n(CCC(=O)NCc3ccc(OC)cc3)c(=O)c2cc1OCC: N
- Cn1nc(C(F)(F)F)c(/C=N/OC(=O)c2ccccc2Cl)c1SCc1ccc(Cl)cc1: Y
- Cn1c(=O)c2c(n(Cc3ccccc3)c1=O)NC(=O)C2CC(=O)NCc1cccc(Cl)c1 (stereo not given): N
- COc1cc(OC)c(C#N)c(S(=O)(=O)Cc2ccccc2)c1: Y

Record request — test call for "COc1ccc(/C=N/NC(=O)c2ccn[nH]2)cc1COc1ccc(F)cc1"
Y

Could you check what this test reported for "Cc1ccc(CS(=O)(=O)CCC(=O)NCc2ccccn2)cc1" ?
N

Dear all, I need the recorded test outcome for "Cn1nc(C(F)(F)F)c(/C=N/OC(=O)c2ccc(Cl)cc2)c1Cl" , thank you.
Y

// param item: "O=C(O)C1=CCNCC1" ; yields the recorded call
N

====

# assay system: Cytochrome P450 1A2 (Homo sapiens)
# assay method text: Cytochrome panel assay with activity outcomes
# measurement context: recombinant CYP, pro-luciferin dealkylation, luminescence, p450-cyp1a2; series mostly up to 57.1 µM
Screen size: about 16,000 compounds; about 5,700 (36%) were called active. About 24% were inconclusive and are not listed. The call rests on the fitted dose curve; in most records, active means well fitted curve in the direction sought with a large enough effect; inconclusive means small, poorly fitted or top-dose-only effect, or effect the other way; inactive means no such curve, though single readings can be large or run the other way. The list shows a part of the results.
The reply should name one outcome from class 1 = active, class 0 = inactive

Example cases with answers are listed next.
• CCC(=O)Nc1ccc(NC(=O)CSc2nnnn2-c2cccnc2)cc1C = class 0
• c1ccc2oc(C3=NCCN3)cc2c1 = class 1
• Cc1ccc(Oc2ccccc2/C=C2\SC(=O)N(C)C2=O)cc1 = class 1

Test call, this molecule: "COc1ccc(/C=C(\C#N)C(N)=O)cc1OC"
class 1

Recorded call for "CSc1nc2nc3c(c(=O)n2[nH]1)CN(Cc1ccccc1)CC3" ?
class 1

Source: PubChem BioAssay AID1851
